-Log MIC listing for selected molecules.
# Tested on: Bacillus subtilis
# TEST_DESCRIPTION: Antibacterial activity against Bacillus subtilis ATCC 6633
# Type: functional
# Design: unit not given here
Could you keep your reply to the number by itself?

Reference set (8 entries):
CCOC(=O)c1pc(P(Cl)Cl)c2n1[C@@H](N=Nc1cccc(CC)c1)C(=O)Nc1ccc(C)cc1-2 (stereo partly specified) ... 4.68
CCOC(=O)c1pc(P(Cl)Cl)c2n1[C@@H](N=Nc1cccc(OC)c1)C(=O)Nc1ccc(C)cc1-2 (stereo partly specified) ... 4.28
CCOC(=O)c1pc(P(Cl)Cl)c2n1[C@@H](N=Nc1ccccc1)C(=O)Nc1ccc(C)cc1-2 (stereo partly specified) ... 4.05
CCOC(=O)c1pc(P(Cl)Cl)c2n1[C@@H](N=Nc1ccc(C)cc1)C(=O)Nc1ccc(C)cc1-2 (stereo partly specified) ... 4.22
CCOC(=O)c1pc(P(Cl)Cl)c2n1[C@@H](N=Nc1ccc(CC)cc1)C(=O)Nc1ccc(C)cc1-2 (stereo partly specified) ... 4.64
CCOC(=O)c1pc(P(Cl)Cl)c2n1[C@@H](N=Nc1cccc(C)c1)C(=O)Nc1ccc(C)cc1-2 (stereo partly specified) ... 4.25
CCOC(=O)c1pc(P(Cl)Cl)c2n1[C@@H](N=Nc1cccc(C(=O)O)c1)C(=O)Nc1ccc(C)cc1-2 (stereo partly specified) ... 4.37
CCOC(=O)c1pc(P(Cl)Cl)c2n1[C@@H](N=Nc1ccc(O)cc1)C(=O)Nc1ccc(C)cc1-2 (stereo partly specified) ... 4.17

Req: # -Log MIC lookup, item CCOC(=O)c1pc(P(Cl)Cl)c2n1[C@@H](N=Nc1ccc([N+](=O)[O-])cc1)C(=O)Nc1ccc(C)cc1-2 (stereo partly specified)
Resp: 4.52

Req: # -Log MIC lookup, item CCOC(=O)c1pc(P(Cl)Cl)c2n1[C@@H](N=Nc1cccc(O)c1)C(=O)Nc1ccc(C)cc1-2 (stereo partly specified)
Resp: 4.22

Req: # -Log MIC lookup, item CCOC(=O)c1pc(P(Cl)Cl)c2n1[C@@H](N=Nc1ccc(Cl)cc1)C(=O)Nc1ccc(C)cc1-2 (stereo partly specified)
Resp: 4.41

Req: # -Log MIC lookup, item CCOC(=O)c1pc(P(Cl)Cl)c2n1[C@@H](N=Nc1cccc(OCC)c1)C(=O)Nc1ccc(C)cc1-2 (stereo partly specified)
Resp: 4.96

Req: # -Log MIC lookup, item CCOC(=O)c1pc(P(Cl)Cl)c2n1[C@@H](N=Nc1ccc(OC)cc1)C(=O)Nc1ccc(C)cc1-2 (stereo partly specified)
Resp: 4.29

* * *

# System: Bacillus subtilis
# TEST_DESCRIPTION: Antibacterial activity against Bacillus subtilis ATCC 6633
# Type: functional
# Set-up: unit not given here
-Log MIC listing for selected molecules.

Reference set (2 entries):
CCOC(=O)c1pc(P(Cl)Cl)c2n1[C@@H](N=Nc1ccc(OCC)cc1)C(=O)Nc1ccc(C)cc1-2 (stereo partly drawn) ... 4.83
CCOC(=O)c1pc(P(Cl)Cl)c2n1[C@@H](N=Nc1cccc([N+](=O)[O-])c1)C(=O)Nc1ccc(C)cc1-2 (stereo partly drawn) ... 4.55

Req: # -Log MIC lookup, item CCOC(=O)c1pc(P(Cl)Cl)c2n1[C@@H](N=Nc1cccc(Cl)c1)C(=O)Nc1ccc(C)cc1-2 (stereo partly drawn)
Resp: 4.46
